Please respond with reported normalized RNA/DNA level without ligand (log10) for every item in the list.
B1: library; a variant is named by its letters at N, in order (parent)
chain: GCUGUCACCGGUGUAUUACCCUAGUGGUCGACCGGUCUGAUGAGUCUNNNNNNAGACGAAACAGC

Variants of: B1
METHOD DESCRIPTION: normalized RNA/DNA level without ligand (relative to sTRSVctl = 100) (log10 (% of sTRSVctl)); ligand: hypoxanthine (xanthine aptamer); higher = less ribozyme self-cleavage, higher mRNA level
PROTOCOL CONDITIONS: HEK293T, reporter: mCherry (pCS4076), ligand present: no
Answers are plain numbers.

Consider the following illustrative entries.
INSERT INTO assay_data (mutant_name, experimental_result) VALUES
  ('GUGCAA', 1.69),
  ('CCACUG', 1.8),
  ('GGAACA', 1.76);

Exam item: May I ask what normalized RNA/DNA level without ligand (log10) has been recorded for GUUGUG ?
Marked response: 1.39
